Data provenance: ChEMBL document CHEMBL5303304

System: U2OS
protocol.text: Incucyte cell viability with U2OS; further: unitless GR value; below 1 slowed growth and below 0 cell loss
Type: toxicity, cell-based
run.conditions: human, 12 h, 10 µM, compound concentration 10 uM, replicate number 2
measured.metric: Growth Rate
Number only, no unit.

molecule: Cc1nccc(COC(=O)N2C[C@@H]3[C@@H](CNC(=O)c4ccc5[nH]nnc5c4)[C@@H]3C2)n1 [BI 3017]
number: 0.99
//
molecule: C[C@@H]1OCC2(CCN(c3cnc(Sc4ccnc(N)c4Cl)c(N)n3)CC2)[C@@H]1N [BATOPROTAFIB]
number: 0.78

Exercise: Field request: Growth Rate | item: O[C@]1(C(F)(F)F)CCCC[C@H]1Nc1ccc(F)cc1 [BAY-390]
Solution: 0.8

Exercise: Also need CCOC(=O)CS(=O)(=O)c1ccc([C@@H](CO)NC(=O)c2cc3c(Cl)c(Cl)c(C)cc3n2C)cc1 , thanks.
Solution: 0.52
